- assay.summary: anti-His antibody binders, primary screen, artefact control for SMM control protein annotation, biochemical, small-molecule microarray, 635 nm fluorescence (AID 1128);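 note: score merges feature fluorescence with signal-to-noise for each printed compound spot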
- condition.details: anti-His Alexa647 antibody binding, higher = more signal
Kindly supply the reported composite z-score values for the records listed here.

Some solved entries appear below for comparison.
1) CCCCC=C[C@@H](NC(=O)c1ccc(C(=O)OC)cc1)c1ccccc1: 0.59
2) COCC(=C=CC[C@H](O)c1ccc(OCCO)cc1)C[C@H](O)c1cc(Cl)cc(Cl)c1O: 0.773
3) COc1ccc(C(=O)Nc2cccc(CN3C(=O)[C@@]4(O[C@@H](CCn5cc(CCO)nn5)[C@H]([Si](C)(C)c5ccc(OC)cc5)[C@H]4C)c4ccccc43)c2)cc1: 1.38
4) Cc1ccc(S[C@]2(C(=O)NCc3ccccc3)CC(=O)N(Cc3ccccc3)[C@@H]2c2ccc(CO)cc2)cc1: 3.05
5) COCCOC(=O)N1C(=O)[C@@]2(c3cc(C#CCNC(N)=O)ccc31)[C@H](c1ccc(O)cc1)N1[C@H](c3ccccc3)[C@H](c3ccccc3)OC(=O)[C@H]1[C@@H]2C(=O)Nc1nc2ccccc2s1: 0.0698

Working through the 7 compounds below one at a time, give composite z-score for each.
1. CC1CC/C=C\[C@H]2OC34C=CCN(Cc5ccccc5)C(=O)[C@H]3N(CCCCCO)C(=O)[C@@H]4C2C(=O)O1 (some centres undefined)
2. COCCOC(=O)N1C(=O)[C@@]2(c3cc(C#CCCO)ccc31)[C@H](c1ccccc1OCCO)N1[C@H](c3ccccc3)[C@H](c3ccccc3)OC(=O)[C@H]1[C@@H]2C(=O)N1CCN(c2ncccn2)CC1
3. O=C1C2C=CC(C(O)c3cccs3)N(Nc3ccccc3F)C2C(=O)N1c1ccccc1 (centres undefined)
4. COc1ccc(CCNC(=O)[C@@]2(c3ccc([N+](=O)[O-])cc3)CC(=O)N(CC34CC5CC(CC(C5)C3)C4)[C@@H]2c2ccc(CO)cc2)cc1
5. COc1ccc(C#Cc2ccc3c(c2)[C@]2(C(=O)N3)[C@H](C(=O)NC[C@H](O)c3ccccc3)[C@H]3C(=O)O[C@H](c4ccccc4)[C@H](c4ccccc4)N3[C@@H]2c2ccccc2OCCO)cc1
6. COCCOC(=O)N1C(=O)[C@@]2(c3cc(C#CCNC(N)=O)ccc31)[C@H](c1ccc(O)cc1)N1[C@H](c3ccccc3)[C@H](c3ccccc3)OC(=O)[C@H]1[C@@H]2C(=O)NC[C@H](O)c1ccccc1
7. O=C1C[C@@](C(=O)NC2CC2)(c2ccc([N+](=O)[O-])cc2)[C@@H](c2ccc(CO)cc2)N1CC12CC3CC(CC(C3)C1)C2

1. 0.15
2. 1.64
3. 1.29
4. 1.59
5. 1.05
6. -0.49
7. 0.294

Working through the 2 compounds below one at a time, give composite z-score for each.
1. CO[C@H]1O[C@H](CO)[C@@H](OC(=O)Nc2ccc3c(c2)OCO3)[C@H](OC(=O)Nc2ccccc2)[C@H]1OC(=O)Nc1ccccc1
2. C=CCNC(=O)[C@H]1[C@@H]2C(=O)O[C@@H](c3ccccc3)[C@@H](c3ccccc3)N2[C@@H](c2ccc(O)cc2)[C@]12C(=O)N(C(=O)OCCOC)c1ccc(C#CCCO)cc12

[1.77, 1.03]

###

Kindly supply the reported z-score values for the records listed here.
- assay.summary: E. coli acrAB mutant growth effects, primary screen, E. coli filamentation inducers, strain DRC39, OD650, 24 h (AID 1178);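 note: growth measured as culture turbidity by optical density at 650 nm; test concentration not given here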
- condition.details: higher = more signal, called active from +8 up or from −8 down
Active and inactive are the calls of the source.

Some solved entries appear below for comparison.
1) O=C(CS)NCCCCCCNC(=O)[C@@H]1C[C@@H]2C(=O)N3CCC[C@H]3C(=O)N2[C@@H]1c1ccc(O)cc1: -0.0727 (inactive)
2) COc1ccc([Si](C)(C)[C@@H]2[C@@H](CC(=O)N(CCO)Cc3ccccc3)O[C@]3(C(=O)N(C)c4ccccc43)[C@H]2C)cc1: -0.284 (inactive)
3) CN(C)CCCCNC(=O)[C@H]1C[C@H]2C(=O)N[C@@H](Cc3ccccc3)C(=O)N2[C@H]1c1ccc(O)cc1: -0.539 (inactive)

Working through the 7 compounds below one at a time, give z-score for each.
1. C=C[C@@H](COC(C)=O)N(Cc1ccccc1[N+](=O)[O-])S(=O)(=O)c1ccc(Br)cc1
2. Cc1cc(C)cc(N2C(=O)CS(=O)(=O)C2c2cccc([N+](=O)[O-])c2)c1 (centres undefined)
3. Cc1cc(C)c(C(O)C2C=CC3C(=O)N(c4ccccc4)C(=O)C3N2Nc2ccc(C#N)cc2)c(C)c1 (centres undefined)
4. CC(C)C(=C=CC[C@@H](O)c1ccccc1OCCO)C[C@@H](O)c1ccccn1
5. COC(=O)[C@@]1(Cc2ccccc2)[C@H]2c3cc(C(=O)N4CCCC4)n(C)c3C[C@H]2CN1C(=O)c1ccccc1
6. COCCOC(=O)N1C(=O)[C@@]2(c3cc(C#CCC(C(=O)OC)C(=O)OC)ccc31)[C@H](C(=O)N1CCN(c3ncccn3)CC1)[C@H]1C(=O)O[C@H](c3ccccc3)[C@H](c3ccccc3)N1[C@@H]2c1ccc(OCCO)cc1
7. COc1ccc(C#Cc2ccc3c(c2)[C@]2(C(=O)N3)[C@H](C(=O)NC[C@H](O)c3ccccc3)[C@H]3C(=O)O[C@H](c4ccccc4)[C@H](c4ccccc4)N3[C@@H]2c2ccc(OCCO)cc2)cc1

["1.47 (inactive)", "0.899 (inactive)", "-0.232 (inactive)", "-0.749 (inactive)", "-0.396 (inactive)", "0.272 (inactive)", "-0.34 (inactive)"]
